Data credit: ChEMBL document CHEMBL5365438

Target: Histone deacetylase
Assay type: subcellular, Homo sapiens, Nucleus
Conditions: hela
Description: Inhibition of HDAC in human HeLa cell nuclear extract using Kac fluorogenic peptide as substrate containing residues 379-382 of p53 by fluorescence assay
Listed next: entries and their corresponding log10 of IC50.
quantity: log10 of IC50 (log10 of the value in nM)

> print(dat)
                                   compound  reported
1  O=C(CCCCCN1C(=O)CC(c2ccccc2Cl)Sc2ccccc21)NO (racemic)      2.04
2  O=C(CCCCCN1C(=O)CC(c2ccc(Cl)c(Cl)c2)S(=O)(=O)c2ccccc21)NO (racemic)      1.43
3  O=C(CCCCCN1C(=O)CC(c2ccccc2Cl)S(=O)(=O)c2ccccc21)NO (racemic)      1.61
4  COc1ccc(C2CC(=O)N(CCCCCC(=O)NO)c3ccccc3S2)cc1 (racemic)      2.07
5  O=C(CCCCCN1C(=O)C[C@H](c2ccc(Cl)c(Cl)c2)Sc2ccccc21)NO      2.44
6  O=C(CCCCCN1C(=O)C[C@@H](c2ccc(Cl)c(Cl)c2)Sc2ccccc21)NO      2.22
7  O=C(CCCCCN1C(=O)CC(c2cccc3ccccc23)Sc2ccccc21)NO (racemic)      2.41
8  O=C(CCCCCN1C(=O)CC(c2cccc3ccccc23)S(=O)(=O)c2ccccc21)NO (racemic)      1.89
9  O=C(CCCCCN1C(=O)CC(c2c3ccccc3cc3ccccc23)Sc2ccccc21)NO (racemic)      2.39

###

Target: Histone deacetylase 1 (Homo sapiens, UniProt Q13547)
Sequence (Q13547 whole entry): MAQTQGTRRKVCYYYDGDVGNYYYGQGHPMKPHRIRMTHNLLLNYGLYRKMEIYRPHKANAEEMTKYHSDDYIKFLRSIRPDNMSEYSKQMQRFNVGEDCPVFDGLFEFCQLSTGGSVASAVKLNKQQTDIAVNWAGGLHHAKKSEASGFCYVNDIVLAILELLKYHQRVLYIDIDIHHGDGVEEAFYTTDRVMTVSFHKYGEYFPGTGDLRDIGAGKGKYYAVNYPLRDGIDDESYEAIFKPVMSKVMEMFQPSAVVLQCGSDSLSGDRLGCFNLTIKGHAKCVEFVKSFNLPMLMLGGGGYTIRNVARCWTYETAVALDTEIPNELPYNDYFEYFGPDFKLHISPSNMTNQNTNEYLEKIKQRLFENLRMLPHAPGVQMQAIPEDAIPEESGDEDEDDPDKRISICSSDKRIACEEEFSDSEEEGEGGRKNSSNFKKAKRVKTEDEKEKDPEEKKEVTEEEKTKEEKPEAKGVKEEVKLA
pIC50: −log10 of the molar value.
# Lookup of reported pIC50 keyed by entry
quantity: pIC50

> print(dat)
                                   molecule  quantity  reported
1  Cc1ccc(C2CC(=O)N(CCCCCC(=O)NO)c3ccccc3S2(=O)=O)cc1 (racemic)     pIC50      6.76
2  O=C(CCCCCN1C(=O)CC(c2ccccc2Cl)S(=O)(=O)c2ccccc21)NO (racemic)     pIC50      6.57
3  O=C(CCCCCN1C(=O)CC(c2cccc3ccccc23)S(=O)(=O)c2ccccc21)NO (racemic)     pIC50      6.42
4  COc1ccc(C2CC(=O)N(CCCCCC(=O)NO)c3ccccc3S2(=O)=O)cc1 (racemic)     pIC50      6.61
5  O=C(CCCCCN1C(=O)CC(c2ccccc2)S(=O)(=O)c2ccccc21)NO (racemic)     pIC50      6.94
6  O=C(CCCCCN1C(=O)CC(c2ccc(Cl)c(Cl)c2)S(=O)(=O)c2ccccc21)NO (racemic)     pIC50      7.05

###

inhibition reference
Molecular target: Histone deacetylase 1 (Homo sapiens, UniProt Q13547)
Assay: Inhibition of HDAC1 (unknown origin) at 10 uM using fluorogenic peptide as substrate pre-incubated for 15 mins followed by substrate addition incubated for 30 mins by fluorescence assay relative to control
Conditions: time 45.0 min
quantity: inhibition

> print(dat)
                                   molecule  reported
1  O=C(CCCCCN1C(=O)CC(c2ccccc2)S(=O)(=O)c2ccccc21)NO (racemic)     99.1%
2  O=C(CCCCCN1C(=O)CC(c2ccccc2Cl)S(=O)(=O)c2ccccc21)NO (racemic)     92.6%
3  COc1ccc(C2CC(=O)N(CCCCCC(=O)NO)c3ccccc3S2(=O)=O)cc1 (racemic)     94.2%
4  O=C(CCCCCN1C(=O)CC(c2ccc(Cl)c(Cl)c2)S(=O)(=O)c2ccccc21)NO (racemic)     96.9%
5  Cc1ccc(C2CC(=O)N(CCCCCC(=O)NO)c3ccccc3S2(=O)=O)cc1 (racemic)     93.5%
6  O=C(CCCCCN1C(=O)CC(c2cccc3ccccc23)S(=O)(=O)c2ccccc21)NO (racemic)     80.9%
